test system: Escherichia coli TOP10; assay: shrunken log2 fold change of peptide-encoding DNA abundance (4.5 h post-induction vs induction); higher = less antimicrobial activity (less host growth inhibition); conditions: time post-induction: 4.5 h; library: site-saturation at positions 5, 18, 19, 20;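 note: peptides expressed intracellularly from a pBAD plasmid library in pooled LB shake-flask culture, induced with 0.3% L-arabinose, DNA abundance read by NGS, three biological replicates, DESeq2 with apeglm shrinkage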
Listed here: items and their measured shrunken log2 fold change.
// response body must contain only the number

- RRIRWRPPRLPRPRPRPSKSPRP: -0.0449

RRIRDRPPRLPRPRPRPRDVPRP has a reported shrunken log2 fold change of 0.128

RRIRVRPPRLPRPRPRPWHNPRP has a reported shrunken log2 fold change of -0.49

RRIRVRPPRLPRPRPRPMKYPRP has a reported shrunken log2 fold change of -0.0836
